Field: IC50. Provide a value for each of the substances that follow.
- test.system: DR4w4 (DRB1*0401) (Homo sapiens, UniProt P01903+P01911, A100K/A169T/F76Y/I96L/K127E/L162R/M171V/N62H/P40V/Q125Y/R42H/S133A/S149N/S66Y/V115G/V209L/W38E)
- assay.text: biochemical
- Type: binding
- assay.setup: read-out: DRB1*0401
No end group written: not given here.
Give bare numbers, in nM.

Reference set, count: 2
787.39 (AAIGGIFIFKKDA; also: non-natural residue (43)) [Peptide 787.39]    800
820.02 (YARRQTTLKAAA; also: non-natural residue (15A)) [Peptide 820.02]    0.35

Now let's try a different one.
Give its IC50 value. Item: 820.04 (ARQTTLKAAA; also: non-natural residue (16A)) [Peptide 820.04]
1.3
